# Test system: MCF7 breast
# PROCEDURE_SUMMARY: NCI tumour cell line growth inhibition, 48 h; in the data active = GI50 below about 0.43 µM; inactive = the rest
Thanks in advance; please answer with one of these: active, inactive

Prompt line: Assay result, entry CCCCCCCCO/N=C\c1c2c(O)c3c(O)c(C)c4c(c3c1O)C(=O)C(C)(O/C=C\C(OC)C(C)C(OC(C)=O)C(C)C(O)C(C)C(O)C(C)/C=C\C=C(\C)C(=O)N2)O4 (stereo not drawn) — outcome?
Response line: inactive

Prompt line: CC(=O)C1=C(O)C2(O)C(=O)c3c(c(C)c4ccc(C)c(O)c4c3O)CC2C(N)C1=O (stereo not drawn) , same question.
Response line: inactive

Prompt line: `O=[N+]([O-])c1ccccc1/C=C/C=C1c2ccccc2-c2ccccc21` , same question.
Response line: inactive

Prompt line: `COc1cc(C(=O)O)ccc1NC(=O)[C@@H]1N[C@@H](CC(C)(C)C)[C@](C#N)(c2ccc(Cl)cc2F)[C@H]1c1cccc(Cl)c1F` , same question.
Response line: active

Prompt line: `C[C@]12CC[C@H]3[C@@H](CC=C4C[C@@H](O)CC[C@@]43C)[C@@H]1C/C(=C\c1cccc(OCCCn3ccnc3)c1)[C@@H]2O` , same question.
Response line: inactive

Prompt line: `Cc1cccc(Oc2ccc(Nc3ncnc4ccc(NC(=O)CN5CCN(C)CC5)cc34)cc2Cl)c1` , same question.
Response line: inactive

Prompt line: `CCC[C@H](Nc1nc(-c2ccc(NC(=O)NCC)c(OC)c2)ncc1C)c1cccnc1` , same question.
Response line: active

Prompt line: `C=C1C(=O)O[C@H]2[C@H]1CC/C(Cn1cc(Cn3ccc4cc(Cl)ccc43)nn1)=C\CC[C@@]1(C)O[C@@H]21` , same question.
Response line: inactive

* * *

# System: HCT-116 colon
# PROCEDURE_SUMMARY: NCI tumour cell line growth inhibition, 48 h
REPORTED_PROPERTY: TGI

Prompt line: Form entry - test system: HCT-116 colon; read-out: TGI; compound: `O=C1C=CC(=O)N1c1ccc2c(c1)Cc1cc(NC(=O)C(F)(F)F)ccc1-2`
Response line: 22.6 µM

Prompt line: `O[C@H]1[C@H]2[C@H](O)CCCN2C[C@H]1O` , same question.
Response line: > 100 µM

Prompt line: O=C1CC(c2ccccc2)NCN1 (stereo not given) , same question.
Response line: > 100 µM

Prompt line: COc1cc(/C=C2\CCC(C)c3c2nc(N)c(C#N)c3-c2cc(OC)c(OC)c(OC)c2)cc(OC)c1OC (stereo not given) , same question.
Response line: > 100 µM

Prompt line: `S=C(NCCCCCCNC(=S)Nc1c2ccccc2nc2ccccc12)Nc1c2ccccc2nc2ccccc12` , same question.
Response line: > 100 µM

Prompt line: `Cc1nn(-c2ccccc2)c2nc3c(c(C)nn3-c3ccccc3)c(-c3ccccc3Br)c12` , same question.
Response line: > 100 µM

Prompt line: `C=C1C(=O)O[C@H]2[C@H]1CC/C(COC(=O)N[C@@H](Cc1c[nH]c3ccccc13)C(=O)OC)=C\CC[C@@]1(C)O[C@@H]21` , same question.
Response line: 2.79 µM

Prompt line: COCC1OCCN1C (stereo not given) , same question.
Response line: > 100 µM

Prompt line: `CSC1=N/C(=C\c2ccc(Cl)cc2)C(=O)N1CN1CCOCC1` , same question.
Response line: > 100 µM

Prompt line: O=C(O)C(Cc1ccccc1)N1C(=O)c2ccccc2C1=O (stereo not given) , same question.
Response line: > 100 µM
